Measured EC50, listed per entry.
Molecular target: CHOK1 cells engineered to overexpress human CCR2 (Homo sapiens, UniProt P41597)
Construct: expressed in transfected cells; host or cells: CHOK1 cells
Test: Antibody dependent cellular cytotoxicity (ADCC) reporter assay (Example 199)
Assay type: cell-based
Settings: with anti-cotinine antibody SEQ ID NO: 11/12; CHOK1-human CCR2 target cells, Jurkat FcγRIIIa NFAT-luciferase reporter cells; 12-18 hours; read-out: ADCC Reporter Assay pEC50 (converted)
Recorded endpoint: EC50 (nM)

- CC(C)N(C)[C@@H]1CC[C@H](N2CC[C@H](Nc3ncnc4ccc(C(F)(F)F)cc34)C2=O)[C@H](NC(=O)CNC(=O)[C@H]2CC[C@@H](NC(=O)CCOCCOCCNC(=O)[C@H]3CC(=O)N(C)[C@@H]3c3cccnc3)CC2)C1: 1.67
- CC(C)N(C)[C@@H]1CC[C@H](N2CC[C@H](Nc3ncnc4ccc(C(F)(F)F)cc34)C2=O)[C@H](NC(=O)CCCCCCCCC(=O)NCCOCCOCCNC(=O)[C@H]2CC(=O)N(C)[C@@H]2c2cccnc2)C1: 2

---

Measured IC50, listed per entry.
Target: human alpha1 nicotinic acetylcholine (nACh) receptor (Homo sapiens, UniProt P02708+Q07001)
Sequence (P02708 21-457): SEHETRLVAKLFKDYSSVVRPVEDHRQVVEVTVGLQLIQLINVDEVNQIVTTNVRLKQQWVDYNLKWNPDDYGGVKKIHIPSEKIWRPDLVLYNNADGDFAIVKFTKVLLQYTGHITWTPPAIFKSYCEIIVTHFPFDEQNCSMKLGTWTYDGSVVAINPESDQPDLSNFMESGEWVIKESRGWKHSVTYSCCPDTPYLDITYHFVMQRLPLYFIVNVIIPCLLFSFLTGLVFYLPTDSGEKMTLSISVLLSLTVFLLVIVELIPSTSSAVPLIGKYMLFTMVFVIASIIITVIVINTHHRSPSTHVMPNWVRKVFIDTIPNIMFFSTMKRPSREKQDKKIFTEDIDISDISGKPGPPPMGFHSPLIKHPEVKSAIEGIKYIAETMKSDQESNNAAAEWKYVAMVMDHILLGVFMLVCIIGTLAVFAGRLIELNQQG
Sequence (P11230 24-501 partner): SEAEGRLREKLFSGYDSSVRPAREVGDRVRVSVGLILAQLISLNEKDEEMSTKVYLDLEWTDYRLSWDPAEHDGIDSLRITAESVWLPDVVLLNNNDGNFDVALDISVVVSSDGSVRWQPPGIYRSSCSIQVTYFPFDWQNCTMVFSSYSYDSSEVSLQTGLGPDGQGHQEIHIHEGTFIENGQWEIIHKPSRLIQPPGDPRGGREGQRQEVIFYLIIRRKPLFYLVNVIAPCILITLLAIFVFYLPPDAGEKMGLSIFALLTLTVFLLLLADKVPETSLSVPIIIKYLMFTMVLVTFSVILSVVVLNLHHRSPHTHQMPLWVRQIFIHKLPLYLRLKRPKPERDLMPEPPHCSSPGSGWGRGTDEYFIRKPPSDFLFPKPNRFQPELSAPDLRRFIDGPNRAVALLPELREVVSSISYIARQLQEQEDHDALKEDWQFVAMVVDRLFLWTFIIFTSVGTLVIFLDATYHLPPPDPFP
Sequence (Q07001 22-517): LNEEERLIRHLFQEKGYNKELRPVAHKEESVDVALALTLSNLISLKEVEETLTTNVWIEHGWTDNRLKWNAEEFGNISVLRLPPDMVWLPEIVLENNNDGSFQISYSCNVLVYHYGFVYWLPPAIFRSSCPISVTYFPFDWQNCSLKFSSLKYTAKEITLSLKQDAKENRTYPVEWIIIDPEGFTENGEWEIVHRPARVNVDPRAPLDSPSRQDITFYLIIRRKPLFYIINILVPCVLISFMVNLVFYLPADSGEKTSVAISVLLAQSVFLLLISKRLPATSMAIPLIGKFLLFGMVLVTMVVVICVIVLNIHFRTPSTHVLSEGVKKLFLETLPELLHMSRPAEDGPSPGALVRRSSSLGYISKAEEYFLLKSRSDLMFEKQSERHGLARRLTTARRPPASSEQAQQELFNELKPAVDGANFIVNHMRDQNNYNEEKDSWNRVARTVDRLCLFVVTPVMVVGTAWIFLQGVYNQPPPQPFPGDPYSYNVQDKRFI
Experiment: Nicotinic acetylcholine receptor antagonism assay, IONFlux automated patch clamp (Example 203)
Assay type: cell-based
Details: nAChR antagonism; ACh stimulated; patch clamp
Recorded endpoint: IC50 (µM)

- CC(C)N(C)[C@@H]1CC[C@H](N2CC[C@H](Nc3ncnc4ccc(C(F)(F)F)cc34)C2=O)[C@H](NC(=O)[C@H]2C[C@@H](NC(=O)CCOCCOCCOCCNC(=O)[C@H]3CC(=O)N(C)[C@@H]3c3cccnc3)C2)C1: 85.3
- CC(C)N(C)[C@@H]1CC[C@H](N2CC[C@H](Nc3ncnc4ccc(C(F)(F)F)cc34)C2=O)[C@H](NC(=O)CCOCCC(=O)N[C@H]2C[C@@H](C(=O)NCCOCCNC(=O)[C@H]3CC(=O)N(C)[C@@H]3c3cccnc3)C2)C1: 31.8

---

Target: CHOK1 cells engineered to overexpress human CCR2 (Homo sapiens, UniProt P41597)
Construct: expressed in transfected cells; host or cells: CHOK1 cells
Test: Antibody dependent cellular cytotoxicity (ADCC) reporter assay (Example 199)
Type: cell-based
Settings: with anti-cotinine antibody SEQ ID NO: 11/12; CHOK1-human CCR2 target cells, Jurkat FcγRIIIa NFAT-luciferase reporter cells; 12-18 hours; read-out: ADCC Reporter Assay pEC50 (converted)
Structures can show the parent of a compound that is named as a salt.
Recorded endpoint: log10 EC50 (log10 of the value in nM)

* CC(C)N(C)[C@@H]1CC[C@H](N2CC[C@H](Nc3ncnc4ccc(C(F)(F)F)cc34)C2=O)[C@H](NC(=O)COCC(=O)N2CCN(C(=O)N3CCN(C(=O)COCCNC(=O)[C@H]4CC(=O)N(C)[C@@H]4c4cccnc4)CC3)CC2)C1 [Example 84] | -0.67
* CC(C)N(C)[C@@H]1CC[C@H](N2CC[C@H](Nc3ncnc4ccc(C(F)(F)F)cc34)C2=O)[C@H](NC(=O)COCCNC(=O)CCOCCNC(=O)COCCNC(=O)[C@H]2CC(=O)N(C)[C@@H]2c2cccnc2)C1 [Example 104] | 0.36
* CC(C)N(C)[C@@H]1CC[C@H](N2CC[C@H](Nc3ncnc4ccc(C(F)(F)F)cc34)C2=O)[C@H](NC(=O)C2CCN(c3cnc(NCCOCCOCCNC(=O)[C@H]4CC(=O)N(C)[C@@H]4c4cccnc4)cn3)CC2)C1 [Example 162] | 0.20
* CC(C)N(C)[C@@H]1CC[C@H](N2CC[C@H](Nc3ncnc4ccc(C(F)(F)F)cc34)C2=O)[C@H](NC(=O)CCCN2CCC3(CCC(C(=O)NCCNC(=O)[C@H]4CC(=O)N(C)[C@@H]4c4cccnc4)CC3)CC2)C1 [Example 183, Formic acid salt] | -0.30
* CC(C)N(C)[C@@H]1CC[C@H](N2CC[C@H](Nc3ncnc4ccc(C(F)(F)F)cc34)C2=O)[C@H](NC(=O)CCCNc2c(NCCOCCOCCOCCOCCNC(=O)[C@H]3CC(=O)N(C)[C@@H]3c3cccnc3)c(=O)c2=O)C1 [Example 164] | 0.13
* CC(C)N(C)[C@@H]1CC[C@H](N2CC[C@H](Nc3ncnc4ccc(C(F)(F)F)cc34)C2=O)[C@H](NC(=O)c2ccnc(CCCOCCOCCOCCOCCNC(=O)[C@H]3CC(=O)N(C)[C@@H]3c3cccnc3)c2)C1 [Example 160] | 0.30
* CC(C)N(C)[C@@H]1CC[C@H](N2CC[C@H](Nc3ncnc4ccc(C(F)(F)F)cc34)C2=O)[C@H](NC(=O)[C@H]2CC[C@H](N3CCN(CCCCCCCCNC(=O)[C@H]4CC(=O)N(C)[C@@H]4c4cccnc4)CC3)CC2)C1 [Example 146] | -0.60
* CC(C)N(C)[C@@H]1CC[C@H](N2CC[C@H](Nc3ncnc4ccc(C(F)(F)F)cc34)C2=O)[C@H](NC(=O)CCCOCC23CCC(COCCNC(=O)[C@H]4CC(=O)N(C)[C@@H]4c4cccnc4)(CC2)CC3)C1 [Example 59] | 2.40
* CC(C)N(C)[C@@H]1CC[C@H](N2CC[C@H](Nc3ncnc4ccc(C(F)(F)F)cc34)C2=O)[C@H](NC(=O)COCCNC(=O)COCCNC(=O)CCOCCNC(=O)[C@H]2CC(=O)N(C)[C@@H]2c2cccnc2)C1 [Example 151] | 0.48
